// provenance: patent US20050048073A1

testedSystem: HLA B*07 (human)
assayNotes: T2B7 HLA stabilisation assay, flow cytometry, 10/20/200 ug/ml, four assays
quantityName: Binding number (binding score)
Output: the number by itself.

Previously resolved entries follow.
IPAGFEPEML [WNVB7 0008] | 10
GPGHEEPQLV [WNVB7 0011] | 2

Here's the next entry for you.
(Q) # return recorded Binding number (binding score) for entry EPPEGVKYVL [WNVB7 0013]
(A) 6
